These data points were gathered from the supplement of paper PMC10126150.

# Tested on: ATP;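 note: ATP exposure 15 min at 22 °C before imaging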
# experimentDescription: switch fluorescence ratio, 500 uM ATP over buffer (Cy3 cluster intensity, sum of 5 cycles each) (fold (ratio)); higher = stronger signal-on switching upon ATP binding; sequences stand for … in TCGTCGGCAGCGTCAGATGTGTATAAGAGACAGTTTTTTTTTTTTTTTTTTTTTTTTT…TC
# setupConditions: aptamer strand: ATP DNA aptamer (quencher-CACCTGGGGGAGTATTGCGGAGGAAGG + anchor), 100 nM annealed; ATP concentration: 500 uM
assayMetric: switch fluorescence ratio

1) ACTAATAGTC: 1.02
2) ATAATAGGCG: 0.985
3) GCGATCGTTT: 0.992
4) TTGCATTTGT: 1
5) GCGTTGCATT: 1
6) TTCTTGGACA: 0.993
7) GGTTTATTGG: 1
8) TAAGCTCAAT: 0.979
9) GGGGGCAGGT: 1.03
10) GGGGGGGTAG: 1
11) GGTTGTGCTT: 0.995
12) TTAGTCCTTG: 0.991
13) GCCGTGGAG: 1.01
14) ACAGGTAAA: 1.02
15) TGAGGCCTAG: 1.02
16) CCAGGTATGA: 1.03
17) GGTTGCAAGA: 1.01
18) GGTTTAATGT: 0.993
19) TTAGGGCGGG: 1.04
20) TATAAAGAGC: 1.08
21) TTTTAAACTG: 1.1
22) TGATAGGGGT: 1.02
23) CCGGACAGGT: 1.13
24) CAAATTTGAT: 1.03
25) GACGGGGGTA: 1.04
26) GGGAGTGTCA: 0.981
27) TTAGTGGATT: 0.996
28) GTTGGGGTAT: 1.06
29) GTTAGCAGGG: 1.01
30) TGCCTTTGTA: 0.963
31) CAGGTAAGAG: 0.987
32) GTCAGGGTAC: 1.09
33) ATCTATAGTG: 0.965
34) TTGGATTGTT: 1.04
35) GTCGCCGGGT: 0.994
36) TTCCCACCGT: 1.06
37) TGGGATAAAG: 0.992
38) ATAGATCAGC: 0.995
39) ACGAGGGCCA: 1
40) TATGGTTTTC: 1.01
41) GATTGGGGTG: 1
42) TCCTTGTAGT: 1.11
43) TATGCTAGC: 1.03
